Tested on: K98450-129-R-PDC multicell spheroids, viability
PROTOCOL_DETAILS: Anticancer human tumor K98450-129-R-PDC patient-derived colon adenocarcinoma cell line growth inhibition [PI3K]; active = viability on the fitted dose curve at most 10% of control; inactive = the rest
CONDITION_SET: second compound 0.01 µM; first compound 10 µM
Thanks in advance; please answer with one of these: YES for active, NO for inactive

A selection of reference data follows.
COMPOUND | ANSWER_LABEL
CCCS(=O)(=O)Nc1ccc(F)c(C(=O)c2c[nH]c3ncc(-c4ccc(Cl)cc4)cc23)c1F + COc1c(OCCCN2CCOCC2)ccc2c3n(c(=NC(=O)c4cnc(N)nc4)nc12)CCN3 | NO
CC1(C)CCC(CN2CCN(c3ccc(C(=O)NS(=O)(=O)c4ccc(NCC5CCOCC5)c([N+](=O)[O-])c4)c(Oc4cnc5[nH]ccc5c4)c3)CC2)=C(c2ccc(Cl)cc2)C1 + COc1c(OCCCN2CCOCC2)ccc2c3n(c(=NC(=O)c4cnc(N)nc4)nc12)CCN3 | NO

Task: Answer briefly: the call reported for CCCS(=O)(=O)Nc1ccc(F)c(C(=O)c2c[nH]c3ncc(-c4ccc(Cl)cc4)cc23)c1F + CC(Nc1ccc2c(c1)OCCn1cc(N3C(=O)OCC3C(F)F)nc1-2)C(N)=O in this assay.
Result: YES

----------
System: K98450-129-R-PDC multicell spheroids, viability
PROTOCOL_DETAILS: Anticancer human tumor K98450-129-R-PDC cell line growth inhibition [PI3K];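 note: spheroids exposed to agents for seven days before read-out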
CONDITION_SET: curve of first compound; second compound 1 µM
Excerpt: Combinatorial screen of targeted agents with the PI3K inhibitors inavolisib, alpelisib, duvelisib, and copanlisib in multi-cell type tumor spheroids A high-throughput screen of multi-cell type tumor spheroids was designed to identify active combinations of targeted small molecules and PI3K pathway inhibitors. […] Compounds. […] If the clinical Cmax for an agent had not been determined, the highest concentration tested was 10 microM. […]
pIC50 for assorted compounds
Note: pIC50 values are expressed as the negative base-10 logarithm of concentration in M.

# count of solved cases: 3
COMPOUND | MEASURED
CC1(C)CCC(CN2CCN(c3ccc(C(=O)NS(=O)(=O)c4ccc(NCC5CCOCC5)c([N+](=O)[O-])c4)c(Oc4cnc5[nH]ccc5c4)c3)CC2)=C(c2ccc(Cl)cc2)C1 + CC(Nc1ccc2c(c1)OCCn1cc(N3C(=O)OCC3C(F)F)nc1-2)C(N)=O | 5.27
CC1(C)CCC(CN2CCN(c3ccc(C(=O)NS(=O)(=O)c4ccc(NCC5CCOCC5)c([N+](=O)[O-])c4)c(Oc4cnc5[nH]ccc5c4)c3)CC2)=C(c2ccc(Cl)cc2)C1 + Cc1nc(NC(=O)N2CCCC2C(N)=O)sc1-c1ccnc(C(C)(C)C(F)(F)F)c1 | 5.27
Cn1nccc1Nc1nccc(-c2ccn(C(CO)c3ccc(Cl)c(F)c3)c(=O)c2)n1 (stereo not given) + COc1c(OCCCN2CCOCC2)ccc2c3n(c(=NC(=O)c4cnc(N)nc4)nc12)CCN3 | 6.57

Proceed to the following item.
Task: Answer with reported pIC50 of C=CC(=O)N1CCN(c2nc(=O)n(-c3c(C)ccnc3C(C)C)c3nc(-c4c(O)cccc4F)c(F)cc23)C(C)C1 (stereo not given) + COc1c(OCCCN2CCOCC2)ccc2c3n(c(=NC(=O)c4cnc(N)nc4)nc12)CCN3
Result: 6.78

----------
Readings of viability, T/C for the listed compounds
System: K98450-129-R-PDC multicell spheroids, viability
PROTOCOL_DETAILS: Anticancer human tumor K98450-129-R-PDC cell line growth inhibition [PI3K];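 note: spheroids exposed to agents for seven days before read-out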
CONDITION_SET: second compound 3.16 µM; first compound 1 µM; stronger effect = lower value
Text: Combinatorial screen of targeted agents with the PI3K inhibitors inavolisib, alpelisib, duvelisib, and copanlisib in multi-cell type tumor spheroids A high-throughput screen of multi-cell type tumor spheroids was designed to identify active combinations of targeted small molecules and PI3K pathway inhibitors. […] Compounds. […] If the clinical Cmax for an agent had not been determined, the highest concentration tested was 10 microM. […]
Expressed in %, but write only the number.

COMPOUND | TEST_TARGET | viability, T/C, %
CCCS(=O)(=O)Nc1ccc(F)c(C(=O)c2c[nH]c3ncc(-c4ccc(Cl)cc4)cc23)c1F + Cc1nc(NC(=O)N2CCCC2C(N)=O)sc1-c1ccnc(C(C)(C)C(F)(F)F)c1 | K98450-129-R-PDC multicell spheroids, viability | 89
C#Cc1c(F)ccc2cc(O)cc(-c3ncc4c(N5CC6CCC(C5)N6)nc(OCC56CCCN5CC(F)C6)nc4c3F)c12 (stereo not given) + Cc1nc(NC(=O)N2CCCC2C(N)=O)sc1-c1ccnc(C(C)(C)C(F)(F)F)c1 | K98450-129-R-PDC multicell spheroids, viability | 75.3
C=CC(=O)N1CCN(c2nc(=O)n(-c3c(C)ccnc3C(C)C)c3nc(-c4c(O)cccc4F)c(F)cc23)C(C)C1 (stereo not given) + Cc1nc(NC(=O)N2CCCC2C(N)=O)sc1-c1ccnc(C(C)(C)C(F)(F)F)c1 | K98450-129-R-PDC multicell spheroids, viability | 55.7
Cn1nccc1Nc1nccc(-c2ccn(C(CO)c3ccc(Cl)c(F)c3)c(=O)c2)n1 (stereo not given) + CC(Nc1ncnc2nc[nH]c12)c1cc2cccc(Cl)c2c(=O)n1-c1ccccc1 | K98450-129-R-PDC multicell spheroids, viability | 93.8

Lab note: next compound to report on.
Task: Please give measured viability, T/C of the following entry: C[C@@H](NC(=O)c1ncnc(N)c1Cl)c1ncc(C(=O)Nc2cc(C(F)(F)F)c(Cl)cn2)s1 + CC(Nc1ncnc2nc[nH]c12)c1cc2cccc(Cl)c2c(=O)n1-c1ccccc1
Result: 120

----------
Test system: K98450-129-R-PDC multicell spheroids, viability
PROTOCOL_DETAILS: Anticancer human tumor K98450-129-R-PDC cell line growth inhibition [PI3K];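 note: spheroids exposed to agents for seven days before read-out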
CONDITION_SET: second compound 3.16 µM; first compound 0.1 µM; stronger effect = lower value
# Lookup of reported viability, T/C keyed by entry
Field: numeric (%). Do not append units.

Use these answered entries as a reference point.
MOLECULE | U | viability, T/C
CC(C)NCC(C(=O)N1CCN(c2ncnc3c2C(C)CC3O)CC1)c1ccc(Cl)cc1 (stereo not given) + CC(Nc1ncnc2nc[nH]c12)c1cc2cccc(Cl)c2c(=O)n1-c1ccccc1 | % | 88.4
CNC(=O)c1ccc(N2C(=S)N(c3ccc(C#N)c(C(F)(F)F)c3)C(=O)C2(C)C)cc1F + Cc1nc(NC(=O)N2CCCC2C(N)=O)sc1-c1ccnc(C(C)(C)C(F)(F)F)c1 | % | 88.2
CCN1CCN(Cc2ccc(Nc3ncc(F)c(-c4cc(F)c5nc(C)n(C(C)C)c5c4)n3)nc2)CC1 + CC(Nc1ncnc2nc[nH]c12)c1cc2cccc(Cl)c2c(=O)n1-c1ccccc1 | % | 90.8
CC1(C)CCC(CN2CCN(c3ccc(C(=O)NS(=O)(=O)c4ccc(NCC5CCOCC5)c([N+](=O)[O-])c4)c(Oc4cnc5[nH]ccc5c4)c3)CC2)=C(c2ccc(Cl)cc2)C1 + Cc1nc(NC(=O)N2CCCC2C(N)=O)sc1-c1ccnc(C(C)(C)C(F)(F)F)c1 | % | 87.4

Continue with the next molecule.
Task: Give K98450-129-R-PDC multicell spheroids, viability viability, T/C for the following molecule: C=CC(=O)N1CCN(c2nc(=O)n(-c3c(C)ccnc3C(C)C)c3nc(-c4c(O)cccc4F)c(F)cc23)C(C)C1 (stereo not given) + CC(Nc1ncnc2nc[nH]c12)c1cc2cccc(Cl)c2c(=O)n1-c1ccccc1
Result: 98.1

----------
Tested on: K98450-129-R-PDC multicell spheroids, viability
PROTOCOL_DETAILS: Anticancer human tumor K98450-129-R-PDC cell line growth inhibition [PI3K];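 note: spheroids exposed to agents for seven days before read-out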
CONDITION_SET: second compound 0.0316 µM; first compound 0.316 µM; stronger effect = lower value
READOUT_LABEL: viability, T/C (%)
Lab book: enter the figure in %, no units written.

Below are worked cases with known answers.
MOLECULE | viability, T/C / %
C=CC(=O)N1CCN(c2nc(=O)n(-c3c(C)ccnc3C(C)C)c3nc(-c4c(O)cccc4F)c(F)cc23)C(C)C1 (stereo not given) + CC(Nc1ncnc2nc[nH]c12)c1cc2cccc(Cl)c2c(=O)n1-c1ccccc1 | 79.7
CCCS(=O)(=O)Nc1ccc(F)c(C(=O)c2c[nH]c3ncc(-c4ccc(Cl)cc4)cc23)c1F + CC(Nc1ccc2c(c1)OCCn1cc(N3C(=O)OCC3C(F)F)nc1-2)C(N)=O | 100

Task: State, in one line, measured viability, T/C of CC(Cn1ccc(-c2ccc(C#N)c(Cl)c2)n1)NC(=O)c1cc(C(C)O)[nH]n1 (stereo not given) + Cc1nc(NC(=O)N2CCCC2C(N)=O)sc1-c1ccnc(C(C)(C)C(F)(F)F)c1
Result: 107

Task: Answer with reported viability, T/C of C=CC(=O)N1CCN(c2nc(=O)n(-c3c(C)ccnc3C(C)C)c3nc(-c4c(O)cccc4F)c(F)cc23)C(C)C1 (stereo not given) + CC(Nc1ccc2c(c1)OCCn1cc(N3C(=O)OCC3C(F)F)nc1-2)C(N)=O
Result: 95.5

Task: Identify measured viability, T/C associated with CC(C)NCC(C(=O)N1CCN(c2ncnc3c2C(C)CC3O)CC1)c1ccc(Cl)cc1 (stereo not given) + CC(Nc1ccc2c(c1)OCCn1cc(N3C(=O)OCC3C(F)F)nc1-2)C(N)=O
Result: 98.9
